Examples of compounds with documented inhibition follow.
Tested on: HIV-1 integrase (with human LEDGF/p75)
Assay: blockers of LEDGF/p75-dependent integrase strand transfer – biochemical, TR-FRET, high throughput, primary screen (AID 743269);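 note: signal is the Cy5 over europium emission ratio at 671 and 618 nm; 0% = plate median of compound wells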
Details: TR-FRET IN-LEDGF/p75 DNA integration, Eu/Cy5; at 3.7 µM; stronger effect = higher value
In all, about 370,000 compounds went through this assay and about 2,400 (0.65%) were called active. The full list was thinned out, with actives kept by preference.
Respond with the bare value in %.

- COMPOUND: "C[N+]12CN3CN(CN(C3)C1)C2"
  inhibition (%): -0.49

Fill in the recorded inhibition for this compound, with HIV-1 integrase (with human LEDGF/p75) as test system: `Cc1cc(/C=C2/C(=O)NC(=O)N(Cc3ccco3)C2=O)c(C)n1-c1ccc(C(=O)O)cc1` 86

Find inhibition (HIV-1 integrase (with human LEDGF/p75)) for the entry `Brc1ccc2c(c1)CNCc1cnnn1-2` 6.88

Write down the reported inhibition of `Cc1cc(N2CCNC[C@@H]2C)ccc1N1CC[C@H](O)C1` , test system: HIV-1 integrase (with human LEDGF/p75). 7.07

---

System: HIV-1 integrase (with human LEDGF/p75)
Assay: blockers of LEDGF/p75-dependent integrase strand transfer – biochemical, TR-FRET, high throughput, primary screen (AID 743269);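 note: signal is the Cy5 over europium emission ratio at 671 and 618 nm; 0% = plate median of compound wells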
Settings: TR-FRET IN-LEDGF/p75 DNA integration, Eu/Cy5; at 3.7 µM; stronger effect = higher value
Screen size: about 370,000 compounds; about 2,400 (0.65%) were called active. The sample holds actives, similar compounds and a random draw of the others, so the mix is not that of the screen.
// values below are reported inhibition
Number in %, nothing else.

- COMPOUND: "COc1cc(OC)cc(C(=O)NCCN2CCC3(CC2)C(=O)NCN3c2ccccc2)c1"
  PROPERTY: "inhibition"
  VALUE_UNIT: "%"
  NUMERIC_RESULT: 4.72
- COMPOUND: "Cc1c(C(=O)O)cccc1-n1c(C)cc(/C=C2\\C(=O)NC(=O)N(c3ccc4c(c3)OCO4)C2=O)c1C"
  PROPERTY: "inhibition"
  VALUE_UNIT: "%"
  NUMERIC_RESULT: 15.4
- COMPOUND: "CCN1C(=O)C(=Cc2c(C)n(CC(=O)NCC3CCCO3)c3ccccc23)C(=O)N(CC)C1=S (stereo not given)"
  PROPERTY: "inhibition"
  VALUE_UNIT: "%"
  NUMERIC_RESULT: -2.24
- COMPOUND: "O=S(=O)(c1ccccc1)N1CCC2CCNC2C1 (stereo not given)"
  PROPERTY: "inhibition"
  VALUE_UNIT: "%"
  NUMERIC_RESULT: 5.81

Need inhibition of CS(=O)(=O)N1CCC2CCNC2C1 (stereo not given) , thanks. -2.54

---

Tested on: HIV-1 integrase (with human LEDGF/p75)
Assay: blockers of LEDGF/p75-dependent integrase strand transfer – biochemical, TR-FRET, high throughput, primary screen (AID 743269);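 note: signal is the Cy5 over europium emission ratio at 671 and 618 nm; 0% = plate median of compound wells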
Conditions: TR-FRET IN-LEDGF/p75 DNA integration, Eu/Cy5; at 3.7 µM; stronger effect = higher value
About 2,400 (0.65%) of roughly 370,000 compounds were called active. Shown is part of a subset that was picked to be rich in actives.
Listed compounds paired with reported inhibition
Lab book: enter the figure in %, no units written.

- COMPOUND: "CCC(C)NC1(c2ccccc2)CCCCC1 (stereo unspecified)"
  inhibition / %: 2.52
- COMPOUND: "Cc1ccnc(-n2c(C)cc(/C=C3\\C(=O)NC(=S)N(C)C3=O)c2C)c1"
  inhibition / %: 1.59
- COMPOUND: "Cc1cccc(-n2c(O)c(C=NC34CN5CN(CN(C5)C3)C4)c(=O)[nH]c2=O)c1"
  inhibition / %: -3.72
- COMPOUND: "O=C(N/N=C/c1c(O)n(C2CC2)c(=S)[nH]c1=O)c1ccccc1"
  inhibition / %: -7.23
- COMPOUND: "CC(C)Nc1nc(Cl)nc(NC(C)C)n1"
  inhibition / %: -1.42

Please find the next compound below.
Form field - read-out: inhibition; system: HIV-1 integrase (with human LEDGF/p75); submitted item: `COc1cc(Cn2c(N)c(C(=O)NCc3ccco3)c3nc4ccccc4nc32)cc(OC)c1OC` 1.57
